Biological target: the molecule itself
Assay: native MS; LILBID-MS of the membrane protein in MSP1E3D1 (DMPG) nanodiscs; 50 mM ammonium acetate pH 6.8; anionic mode; laser pulse energy between 9.5 and 23 mJ; unlabeled and (KcsA) 15N, 2H labeled samples
Measurement Kind: stoichiometry N

| Protein | Measurement Kind | Test Value |
| --- | --- | --- |
| Phospho-N-acetylmuramyl-pentapeptide-transferase E.coli (enzyme, E. coli, UniProt P0A6W3 1-360, looked up, MraY translocase of E. coli; theoretical mass of the construct 42.22 kDa; Dimer in DMPG and in DMPC/DMPG nanodiscs, monomer in DMPC nanodiscs; also called Ec-MraY; E. coli MraY; source: cell-free (CECF, E. coli A19 lysate), co-translationally inserted into nanodiscs, purified (Streptactin)) MLVWLAEHLVKYYSGFNVFSYLTFRAIVSLLTALFISLWMGPRMIAHLQKLSFGQVVRNDGPESHFSKRGTPTMGGIMILTAIVISVLLWAYPSNPYVWCVLVVLVGYGVIGFVDDYRKVVRKDTKGLIARWKYFWMSVIALGVAFALYLAGKDTPATQLVVPFFKDVMPQLGLFYILLAYFVIVGTGNAVNLTDGLDGLAIMPTVFVAGGFALVAWATGNMNFASYLHIPYLRHAGELVIVCTAIVGAGLGFLWFNTYPAQVFMGDVGSLALGGALGIIAVLLRQEFLLVIMGGVFVVETLSVILQVGSFKLRGQRIFRMAPIHHHYELKGWPEPRVIVRFWIISLMLVLIGLATLKVR | stoichiometry N | 2 |
| pH-gated potassium channel KcsA (natural protein, in some samples uniformly 15N, 2H isotope labeled, pH-gated potassium channel KcsA; theoretical mass of the construct 21.33 kDa (22.70 kDa labeled); The printed mass (21.33 kDa) is larger than the natural chain, so tags or extra residues beyond the StrepII tag may be present; source: cell-free (CECF, E. coli A19 lysate), co-translationally inserted into nanodiscs, purified (Streptactin)) SALHWRAAGAATVLLVIVLLAGSYLAVLAERGAPGAQLITYPRALWWSVETATTVGYGDLYPVTLWGRLVAVVVMVAGITSFGLVTAALATWFVGREQERRGHFVRHSEKAAEEAYTRTTRALHERFDRLERMLDDNRR | stoichiometry N | 4 |
| Multidrug transporter EmrE (natural protein, small multidrug transporter EmrE; theoretical mass of the construct 13.00 kDa; source: cell-free (CECF, E. coli A19 lysate), co-translationally inserted into nanodiscs, purified (Streptactin)) MNPYIYLGGAILAEVIGTTLMKFSEGFTRLWPSVGTIICYCASFWLLAQTLAYIPTGIAYAIWSGVGIVLISLLSWGFFGQRLDLPAIIGMMLICAGVLIINLLSRSTPH | stoichiometry N | 2 |
| Phospho-N-acetylmuramyl-pentapeptide-transferase B.subtilis (enzyme, B. subtilis, UniProt Q03521 1-324, looked up, MraY translocase of B. subtilis; theoretical mass of the construct 37.88 kDa; also called Bs-MraY; B. subtilis MraY; source: cell-free (CECF, E. coli A19 lysate), co-translationally inserted into nanodiscs, purified (Streptactin)) MLEQVILFTILMGFLISVLLSPILIPFLRRLKFGQSIREEGPKSHQKKSGTPTMGGVMIILSIIVTTIVMTQKFSEISPEMVLLLFVTLGYGLLGFLDDYIKVVMKRNLGLTSKQKLIGQIIIAVVFYAVYHYYNFATDIRIPGTDLSFDLGWAYFILVLFMLVGGSNAVNLTDGLDGLLSGTAAIAFGAFAILAWNQSQYDVAIFSVAVVGAVLGFLVFNAHPAKVFMGDTGSLALGGAIVTIAILTKLEILLVIIGGVFVIETLSVILQVISFKTTGKRIFKMSPLHHHYELVGWSEWRVVVTFWAAGLLLAVLGIYIEVWL | stoichiometry N | 2 |
